Each item that follows carries a reported viability, T/C.
test system: MDA-MB-468 spheroids with HUVEC/MSC, viability; experiment: Anticancer human tumor MDA-MB-468 cell line growth inhibition [PI3K]; settings: compound 0.1 µM; stronger effect = lower value;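 note: spheroids exposed to agents for seven days before readout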;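 for viability, T/C: 100% = DMSO vehicle control viability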

See these solved cases before continuing.
CC(Nc1ccc2c(c1)OCCn1cc(N3C(=O)OCC3C(F)F)nc1-2)C(N)=O (stereo not given): 91.4% [middle of 8 runs]
CC(=O)c1c(C)c2cnc(Nc3ccc(N4CCNCC4)cn3)nc2n(C2CCCC2)c1=O: 97.2% [middle of 4 runs]
CC1(C)CCC(Nc2ncc(C(F)(F)F)c(-c3c[nH]c4c(P(C)(C)=O)c(C#N)ccc34)n2)CN1 (stereo not given): 10.6% [middle of 4 runs]
Cn1nccc1Nc1nccc(-c2ccn(C(CO)c3ccc(Cl)c(F)c3)c(=O)c2)n1 (stereo not given): 92.9% [middle of 4 runs]

Okay, next one:
Recorded viability, T/C of Cn1ncnc1[C@H]1c2n[nH]c(=O)c3cc(F)cc(c23)N[C@@H]1c1ccc(F)cc1 , please.
56.5% [middle of 4 runs]

----------
test system: MDA-MB-468 spheroids with HUVEC/MSC, viability; assay: Anticancer human tumor MDA-MB-468 cell line growth inhibition [PI3K]; details: compound 0.1 µM; stronger effect = lower value;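 note: spheroids exposed to agents for seven days before readout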;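 for viability, T/C: 100% = DMSO vehicle control viability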
readout_name: viability, T/C

See these solved cases before continuing.
CC(Nc1ncnc2nc[nH]c12)c1cc2cccc(Cl)c2c(=O)n1-c1ccccc1 (stereo unspecified): 93.1% [middle of 8 runs]
CC1(C)CCC(CN2CCN(c3ccc(C(=O)NS(=O)(=O)c4ccc(NCC5CCOCC5)c([N+](=O)[O-])c4)c(Oc4cnc5[nH]ccc5c4)c3)CC2)=C(c2ccc(Cl)cc2)C1: 88% [middle of 4 runs]
CC(C)NCC(C(=O)N1CCN(c2ncnc3c2C(C)CC3O)CC1)c1ccc(Cl)cc1 (stereo unspecified): 81.3% [middle of 4 runs]

Recorded viability, T/C of Cc1nc(NC(=O)N2CCCC2C(N)=O)sc1-c1ccnc(C(C)(C)C(F)(F)F)c1 (stereo unspecified) , please.
83.7% [middle of 8 runs]

Recorded viability, T/C of C[C@@H](NC(=O)c1ncnc(N)c1Cl)c1ncc(C(=O)Nc2cc(C(F)(F)F)c(Cl)cn2)s1 , please.
102% [middle of 4 runs]

Recorded viability, T/C of C#Cc1c(F)ccc2cc(O)cc(-c3ncc4c(N5CC6CCC(C5)N6)nc(OCC56CCCN5CC(F)C6)nc4c3F)c12 (stereo unspecified) , please.
92.6% [middle of 4 runs]

----------
Each item that follows carries a reported IC50.
system: MDA-MB-468 spheroids with HUVEC/MSC, viability; experiment: Anticancer human tumor MDA-MB-468 cell line growth inhibition [PI3K]; settings: curve of first compound; second compound 0.0316 µM;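 note: spheroids exposed to agents for seven days before readout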
Report only the number, with the unit nM understood.

CC(C)n1nc(-c2ccc3oc(N)nc3c2)c2c(N)ncnc21 + CC(Nc1ccc2c(c1)OCCn1cc(N3C(=O)OCC3C(F)F)nc1-2)C(N)=O: 38.5

Recorded IC50 of CCCS(=O)(=O)Nc1ccc(F)c(C(=O)c2c[nH]c3ncc(-c4ccc(Cl)cc4)cc23)c1F + COc1c(OCCCN2CCOCC2)ccc2c3n(c(=NC(=O)c4cnc(N)nc4)nc12)CCN3 , please.
4500

Recorded IC50 of Cn1ncc(Cl)c1-c1cc(C(=O)NC(CN)Cc2cccc(F)c2)sc1Cl (stereo unspecified) + Cc1nc(NC(=O)N2CCCC2C(N)=O)sc1-c1ccnc(C(C)(C)C(F)(F)F)c1 , please.
327

----------
test system: MDA-MB-468 spheroids with HUVEC/MSC, viability; assay: Anticancer human tumor MDA-MB-468 cell line growth inhibition [PI3K]; settings: curve of first compound; second compound 0.1 µM;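 note: spheroids exposed to agents for seven days before readout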
pIC50: −log10 of the molar value.
Each item that follows carries a reported pIC50.

Cn1nccc1Nc1nccc(-c2ccn(C(CO)c3ccc(Cl)c(F)c3)c(=O)c2)n1 (stereo not drawn) + Cc1nc(NC(=O)N2CCCC2C(N)=O)sc1-c1ccnc(C(C)(C)C(F)(F)F)c1: < 5.00
CC(C)n1nc(-c2ccc3oc(N)nc3c2)c2c(N)ncnc21 + CC(Nc1ncnc2nc[nH]c12)c1cc2cccc(Cl)c2c(=O)n1-c1ccccc1: 7.46

Okay, next one:
Recorded pIC50 of C[C@@H](NC(=O)c1ncnc(N)c1Cl)c1ncc(C(=O)Nc2cc(C(F)(F)F)c(Cl)cn2)s1 + COc1c(OCCCN2CCOCC2)ccc2c3n(c(=NC(=O)c4cnc(N)nc4)nc12)CCN3 , please.
< 5.00

----------
system: MDA-MB-468 spheroids with HUVEC/MSC, viability; assay: Anticancer human tumor MDA-MB-468 cell line growth inhibition [PI3K]; conditions: second compound 10 µM; first compound 0.001 µM; stronger effect = lower value;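 note: spheroids exposed to agents for seven days before readout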;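 for viability, T/C: 100% = DMSO vehicle control viability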
readout_name: viability, T/C (%)
Report only the number, with the unit % understood.

See these solved cases before continuing.
Cn1ncnc1[C@H]1c2n[nH]c(=O)c3cc(F)cc(c23)N[C@@H]1c1ccc(F)cc1 + Cc1nc(NC(=O)N2CCCC2C(N)=O)sc1-c1ccnc(C(C)(C)C(F)(F)F)c1: 25.9
CC(=O)c1c(C)c2cnc(Nc3ccc(N4CCNCC4)cn3)nc2n(C2CCCC2)c1=O + Cc1nc(NC(=O)N2CCCC2C(N)=O)sc1-c1ccnc(C(C)(C)C(F)(F)F)c1: 24.2
CC(C)n1nc(-c2ccc3oc(N)nc3c2)c2c(N)ncnc21 + CC(Nc1ncnc2nc[nH]c12)c1cc2cccc(Cl)c2c(=O)n1-c1ccccc1: 39.7
Cn1ncnc1[C@H]1c2n[nH]c(=O)c3cc(F)cc(c23)N[C@@H]1c1ccc(F)cc1 + CC(Nc1ncnc2nc[nH]c12)c1cc2cccc(Cl)c2c(=O)n1-c1ccccc1: 37.8
CC(=O)c1c(C)c2cnc(Nc3ccc(N4CCNCC4)cn3)nc2n(C2CCCC2)c1=O + CC(Nc1ncnc2nc[nH]c12)c1cc2cccc(Cl)c2c(=O)n1-c1ccccc1: 38.5

Recorded viability, T/C of CC(C)n1nc(-c2ccc3oc(N)nc3c2)c2c(N)ncnc21 + Cc1nc(NC(=O)N2CCCC2C(N)=O)sc1-c1ccnc(C(C)(C)C(F)(F)F)c1 , please.
21.8

----------
tested on: MDA-MB-468 spheroids with HUVEC/MSC, viability; assay: Anticancer human tumor MDA-MB-468 cell line growth inhibition [PI3K]; settings: second compound 0.00316 µM; first compound 0.316 µM; stronger effect = lower value;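 note: spheroids exposed to agents for seven days before readout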;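 for viability, T/C: 100% = DMSO vehicle control viability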
readout_name: viability, T/C (%)
Report only the number, with the unit % understood.

See these solved cases before continuing.
CNC(=O)c1ccc(N2C(=S)N(c3ccc(C#N)c(C(F)(F)F)c3)C(=O)C2(C)C)cc1F + COc1c(OCCCN2CCOCC2)ccc2c3n(c(=NC(=O)c4cnc(N)nc4)nc12)CCN3: 88.5
C[C@@H](NC(=O)c1ncnc(N)c1Cl)c1ncc(C(=O)Nc2cc(C(F)(F)F)c(Cl)cn2)s1 + CC(Nc1ccc2c(c1)OCCn1cc(N3C(=O)OCC3C(F)F)nc1-2)C(N)=O: 93.7
CC1(C)CCC(CN2CCN(c3ccc(C(=O)NS(=O)(=O)c4ccc(NCC5CCOCC5)c([N+](=O)[O-])c4)c(Oc4cnc5[nH]ccc5c4)c3)CC2)=C(c2ccc(Cl)cc2)C1 + CC(Nc1ccc2c(c1)OCCn1cc(N3C(=O)OCC3C(F)F)nc1-2)C(N)=O: 82.1

Recorded viability, T/C of CNC(=O)c1ccc(N2C(=S)N(c3ccc(C#N)c(C(F)(F)F)c3)C(=O)C2(C)C)cc1F + CC(Nc1ccc2c(c1)OCCn1cc(N3C(=O)OCC3C(F)F)nc1-2)C(N)=O , please.
94.9

Recorded viability, T/C of CC(Cn1ccc(-c2ccc(C#N)c(Cl)c2)n1)NC(=O)c1cc(C(C)O)[nH]n1 (stereo not given) + COc1c(OCCCN2CCOCC2)ccc2c3n(c(=NC(=O)c4cnc(N)nc4)nc12)CCN3 , please.
94.3

----------
Each item that follows carries a reported viability, T/C.
system: MDA-MB-468 spheroids with HUVEC/MSC, viability; test: Anticancer human tumor MDA-MB-468 cell line growth inhibition [PI3K]; conditions: second compound 0.316 µM; first compound 0.03 µM; stronger effect = lower value;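 note: spheroids exposed to agents for seven days before readout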;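 for viability, T/C: 100% = DMSO vehicle control viability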
Report only the number, with the unit % understood.

See these solved cases before continuing.
Cn1cnc2c(F)c(Nc3ccc(Br)cc3Cl)c(C(=O)NOCCO)cc21 + CC(Nc1ncnc2nc[nH]c12)c1cc2cccc(Cl)c2c(=O)n1-c1ccccc1: 83.8
Cn1cnc2c(F)c(Nc3ccc(Br)cc3Cl)c(C(=O)NOCCO)cc21 + CC(Nc1ccc2c(c1)OCCn1cc(N3C(=O)OCC3C(F)F)nc1-2)C(N)=O: 78.6
Cn1cnc2c(F)c(Nc3ccc(Br)cc3Cl)c(C(=O)NOCCO)cc21 + Cc1nc(NC(=O)N2CCCC2C(N)=O)sc1-c1ccnc(C(C)(C)C(F)(F)F)c1: 82.2

Okay, next one:
Param readout = viability, T/C; param system = MDA-MB-468 spheroids with HUVEC/MSC, viability; param query = Cn1cnc2c(F)c(Nc3ccc(Br)cc3Cl)c(C(=O)NOCCO)cc21 + COc1c(OCCCN2CCOCC2)ccc2c3n(c(=NC(=O)c4cnc(N)nc4)nc12)CCN3 ; response: value
23.4
